target: T1, human LAP-TGFB1 Fc fusion (human)
T1 construct: also called human LAP-TGFβ1-Fc; human LAP-TGFβ-Fc isoform 1
T1 sequence (chain, as listed by the source limits assumed): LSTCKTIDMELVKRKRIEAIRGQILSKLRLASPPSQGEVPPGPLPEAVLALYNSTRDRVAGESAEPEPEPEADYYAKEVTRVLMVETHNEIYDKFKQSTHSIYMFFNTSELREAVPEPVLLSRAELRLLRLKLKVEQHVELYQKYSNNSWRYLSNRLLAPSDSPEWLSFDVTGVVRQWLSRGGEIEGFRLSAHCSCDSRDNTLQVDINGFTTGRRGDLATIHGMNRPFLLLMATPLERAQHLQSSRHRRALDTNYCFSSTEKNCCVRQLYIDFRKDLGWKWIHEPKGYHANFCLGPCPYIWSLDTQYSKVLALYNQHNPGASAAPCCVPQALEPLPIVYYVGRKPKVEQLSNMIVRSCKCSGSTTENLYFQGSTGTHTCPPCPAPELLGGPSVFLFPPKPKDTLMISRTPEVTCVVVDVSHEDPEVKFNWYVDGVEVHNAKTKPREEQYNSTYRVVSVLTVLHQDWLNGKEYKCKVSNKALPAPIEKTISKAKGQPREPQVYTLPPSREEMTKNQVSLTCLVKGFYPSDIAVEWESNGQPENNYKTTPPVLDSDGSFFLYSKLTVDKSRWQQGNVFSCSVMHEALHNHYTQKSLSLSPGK
assay explanation: SPR, antigen-Fc captured, Fab analyte
measurement name: Kd (nM)
The reply should be a number in nM, with the unit left off.

[ask] # query: Kd of entry 67BJN (Fab, V domains shown, also called VH W33D / VL T30Y R53V (67BJN)) VH: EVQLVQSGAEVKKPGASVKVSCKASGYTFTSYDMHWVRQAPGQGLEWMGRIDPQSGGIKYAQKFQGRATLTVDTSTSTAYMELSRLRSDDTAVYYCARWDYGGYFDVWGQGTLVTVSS VL: DIQMTQSPSSLSASVGDRVTITCRASQDIYNYLNWYQQKPGKAVKLLIYYTSVLHSGVPSRFSGSGSGTDYTLTISSLQPEDFATYFCQQGDTLPWTFGQGTKLEIKR
[reply] 0.156

[ask] # query: Kd of entry 64BJN (Fab, V domains shown, also called VH S31T I58S / VL T30Y R53H (64BJN)) VH: EVQLVQSGAEVKKPGASVKVSCKASGYTFTTYWMHWVRQAPGQGLEWMGRIDPQSGGSKYAQKFQGRATLTVDTSTSTAYMELSRLRSDDTAVYYCARWDYGGYFDVWGQGTLVTVSS VL: DIQMTQSPSSLSASVGDRVTITCRASQDIYNYLNWYQQKPGKAVKLLIYYTSHLHSGVPSRFSGSGSGTDYTLTISSLQPEDFATYFCQQGDTLPWTFGQGTKLEIKR
[reply] 2.15

[ask] # query: Kd of entry 20E6 Fab (80BGJ/85BIT) (Fab, V domains shown, also called 20E6 (80BGJ); 20E6 (85BIT)) VH: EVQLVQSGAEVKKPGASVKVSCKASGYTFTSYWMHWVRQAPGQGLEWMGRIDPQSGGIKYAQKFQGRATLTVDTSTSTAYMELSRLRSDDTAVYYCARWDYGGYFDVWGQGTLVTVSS VL: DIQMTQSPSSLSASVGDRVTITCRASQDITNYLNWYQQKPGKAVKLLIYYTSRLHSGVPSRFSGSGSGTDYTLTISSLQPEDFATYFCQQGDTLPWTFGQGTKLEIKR
[reply] 79.9

[ask] # query: Kd of entry 68BJN (Fab, V domains shown, also called VH H35Q S55D S57D W99Y / VL T30Y R53V (68BJN)) VH: EVQLVQSGAEVKKPGASVKVSCKASGYTFTSYWMQWVRQAPGQGLEWMGRIDPQDGDIKYAQKFQGRATLTVDTSTSTAYMELSRLRSDDTAVYYCARYDYGGYFDVWGQGTLVTVSS VL: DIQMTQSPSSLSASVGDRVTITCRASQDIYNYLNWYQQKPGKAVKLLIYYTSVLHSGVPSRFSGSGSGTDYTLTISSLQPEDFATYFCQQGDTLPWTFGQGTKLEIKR
[reply] 0.0191

[ask] # query: Kd of entry 76BJN (Fab, V domains shown, also called VH S31Y W33D Q54Y S55D G57D / VL T30Y R53L T93E (76BJN)) VH: EVQLVQSGAEVKKPGASVKVSCKASGYTFTYYDMHWVRQAPGQGLEWMGRIDPYDGDIKYAQKFQGRATLTVDTSTSTAYMELSRLRSDDTAVYYCARWDYGGYFDVWGQGTLVTVSS VL: DIQMTQSPSSLSASVGDRVTITCRASQDIYNYLNWYQQKPGKAVKLLIYYTSLLHSGVPSRFSGSGSGTDYTLTISSLQPEDFATYFCQQGDELPWTFGQGTKLEIKR
[reply] 0.104

Hello, the source for this data is patent US20230272056A1, in case you need it.
